Taken from patent US20260242478A1.

Assign Anti-CD28 Fab signal in the presence of CD28 to each entry below.
molecular target: T1, Anti-CD28 Fab (SEQ ID NOs: 696, 697); experiment: phage binding ELISA on plate-captured Fab, competitor CD28 antigen
T1 construct: In the phage ELISA the Fab was biotinylated and captured on neutravidin coated plates
T1 sequence (VH, as listed by the source, chain 1 of 2): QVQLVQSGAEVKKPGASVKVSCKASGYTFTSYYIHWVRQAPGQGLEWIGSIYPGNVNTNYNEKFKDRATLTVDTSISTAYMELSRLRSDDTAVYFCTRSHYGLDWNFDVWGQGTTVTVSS
T1 sequence (VL, as listed by the source, chain 2 of 2): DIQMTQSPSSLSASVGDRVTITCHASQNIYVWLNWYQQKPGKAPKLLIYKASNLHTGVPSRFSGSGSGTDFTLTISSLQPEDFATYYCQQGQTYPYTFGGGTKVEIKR
Where no end group is shown, it is not given here.

In: Fill in: Anti-CD28 Fab signal in the presence of CD28 of WCWDYKLWVPTQCP (cysteine pairing not given here; also: displayed on phage, fused to pIII, Clonal phage supernatant; not shown: bacteriophage pIII to which the peptide is fused for display) [Phage-460] is ___
Out: 0.14

In: I'd like to know its Anti-CD28 Fab signal in the presence of CD28. The binder in question is YWYCSPSIVRCVLV (cysteine pairing not given here; also: displayed on phage, fused to pIII, Clonal phage supernatant; not shown: bacteriophage pIII to which the peptide is fused for display) [Phage-468]
Out: 0.09

In: What value of Anti-CD28 Fab signal in the presence of CD28 has been reported for the following binder? YWSCFQIPFTCFYF (Clonal phage supernatant; not shown: bacteriophage pIII to which the peptide is fused for display) [Phage-454]
Out: 0.27

In: Name the reported Anti-CD28 Fab signal in the presence of CD28 value associated with the binder SCAAGASYAWPYCL (Clonal phage supernatant; not shown: bacteriophage pIII to which the peptide is fused for display) [Phage-471]
Out: 0.05

In: I am curious: what Anti-CD28 Fab signal in the presence of CD28 value has been reported for WICDKSGSIMLCRA (Clonal phage supernatant; not shown: bacteriophage pIII to which the peptide is fused for display) [Phage-470] ?
Out: 0.06

In: Recorded Anti-CD28 Fab signal in the presence of CD28 for WCWDYKLWVPMTCP (cysteine pairing not given here; also: displayed on phage, fused to pIII, Clonal phage supernatant; not shown: bacteriophage pIII to which the peptide is fused for display) [Phage-464] , please?
Out: 0.11

In: Fill blank: measured Anti-CD28 Fab signal in the presence of CD28 of the binder FMCLPQNPHPLCFK (Clonal phage supernatant; not shown: bacteriophage pIII to which the peptide is fused for display) [Phage-456] is ____.
Out: 0.06

In: Record request: Anti-CD28 Fab signal in the presence of CD28 value, item GCQYPWAFDAMSCP (cysteine pairing not given here; also: displayed on phage, fused to pIII, Clonal phage supernatant; not shown: bacteriophage pIII to which the peptide is fused for display) [Phage-459]
Out: 0.07

In: Looking for the measured Anti-CD28 Fab signal in the presence of CD28 of YCAGHSPINIGKCL (cysteine pairing not given here; also: displayed on phage, fused to pIII, Clonal phage supernatant; not shown: bacteriophage pIII to which the peptide is fused for display) [Phage-463] , can you help?
Out: 0.06

In: What value of measured Anti-CD28 Fab signal in the presence of CD28 is listed for WCWDYREWVPMTCP (cysteine pairing not given here; also: displayed on phage, fused to pIII, Clonal phage supernatant; not shown: bacteriophage pIII to which the peptide is fused for display) [Phage-461] ?
Out: 0.08

In: Query: Anti-CD28 Fab signal in the presence of CD28; subject: WCWYYREWVPMTCP (cysteine pairing not given here; also: displayed on phage, fused to pIII, Clonal phage supernatant; not shown: bacteriophage pIII to which the peptide is fused for display) [Phage-467]
Out: 0.07
